- Tested on: ARPE-19 cells under UOS
- ASSAY PROTOCOL: Western blot of pro-survival and pro-apoptotic proteins in ARPE-19 cells under UOS
- Assay type: cell-based, human
- EXPERIMENTAL CONDITIONS: Western blot, UOS

MOLECULE	TARGET OF ASSAY	Bax protein
CC/C=C\C[C@H](O)\C=C/C=C/C=C/[C@H](O)C/C=C\C/C=C\CCCCCCCCCCCCC(=O)O [ELV-N32]	ARPE-19 cells under UOS	decreased
CC/C=C\C/C=C\C/C=C\C/C=C\C/C=C\C/C=C\CCCCCCCCCCCCCCC(=O)O [34:6n3]	ARPE-19 cells under UOS	down regulated
CC/C=C\C/C=C\C/C=C\C/C=C\C/C=C\C/C=C\CCCCCCCCCCCCC(=O)O [32:6n3]	ARPE-19 cells under UOS	down regulated
CC/C=C\C[C@H](O)\C=C/C=C/C=C/[C@H](O)C/C=C\C/C=C\CCCCCCCCCCCCCCC(=O)O [ELV-N34]	ARPE-19 cells under UOS	decreased
